Reference source: patent US4333941A

system: HSV-1; test: Inactivation of HSV-1, plaque assay on Vero or HeLa cells (Example 1); type: cell-based, herpes simplex virus type I; details: Human alphaherpesvirus 1, 1 h, one hour at 37° C., versus water control, read-out: Concentration Producing 50% Virus Inhibition
Where a name gives a salt, the structure may show the parent alone.
assayEndpoint: IC50

See these solved cases before continuing.
1) O=C(CCN1CCCCC1)c1ccc(Cl)c(Cl)c1 [HCl] : < 125 µM
2) CCCCCCCCCCOc1ccc(C(=O)CCN2CCCCC2)cc1 [HCl] : < 125 µM
3) CCCCOc1ccc(C(=O)CCN(CC)CC)cc1 [HCl] : < 125 µM
4) CCCCCCCCOc1ccc(C(=O)CCN2CCCCC2)cc1 [HCl] : < 125 µM
5) CCCCOc1ccc(C(=O)C(C)C[N+]2(C)CCCCC2)cc1 (centres unmarked) : > 750 µM

Give one value of IC50 per listed molecule.
1. CCN(CC)CC(=O)Nc1c(C)cccc1C [lidocaine . HCl]
2. CCOc1ccc(N=C(C)Nc2ccc(OCC)cc2)cc1 [phenacaine . HCl]
3. CCCCOc1cc(C(=O)OCCN(CC)CC)ccc1N [benoxinate . HCl]
4. CCCCCCOc1ccc(C(=O)CCN2CCCCC2)cc1 [HCl]
5. CCCCNc1ccc(C(=O)OCCN(C)C)cc1 [tetracaine . HCl]
6. CCN(CC)CCOC(=O)c1ccc(N)cc1 [procaine . HCl]
7. CCOC(=O)c1ccc(N)cc1

A)
1. > 2000 µM
2. > 2000 µM
3. > 2000 µM
4. < 125 µM
5. > 2000 µM
6. > 2000 µM
7. > 2000 µM

Batch lookup, IC50 per entry.
1. CCCOc1ccc(C(=O)OCCN(CC)CC)cc1N [proparacaine . HCl]
2. CCCCOc1ccc(C(=O)CC[N+]2(C)CCCCC2)cc1

A)
["> 2000 µM", "< 125 µM"]
